Provide the reported EC50 of each item.
# testedOn: T1, SARS-COV-2 RBD (SARS-COV-2, UniProt P0DTC2 319-539)
# T1 construct: also called WT RBD
# procedureSummary: ELISA, RBD coated on plate
Provide the reading as a plain figure in ng/mL.

**Query** Which EC50 reading was recorded for the binder C1053 (antibody, V domains shown) VH: EVQLLESGGGLVQPGGSLRLSCAASGFTFSSYAMNWVRQAPGKGLEWVSAISGSGGGTYYADSVKGRFTISRDNSKNTLYLQMDSLRAEDTAVYYCAKDVPIEQQLVPTFDYWGQGALVTVSS VL: DIQMTQSPSSLSASVGDRVTITCRASQSISRYLNWYQQKPGKAPKLLIYGASSLQSGVPSRFSGSGSGTDFTLTISSLQPEDFATYWCQQSYSTLSITFGQGTRLEIK ?
**Result** 4.13

**Query** Can you check C927 (antibody, V domains shown) VH: QVQLVESGGGVVQPGRSLRLSCVASGFTFSYFDMHWVRQAPGKGLEWVALISHDGSTTFYGDSARGRFTISRDNSRNTLDLQMNSLRPEDTAVYFCAKPVDAAMFDFWGQGTLVTVS VL: SYELTQPPSVSVAPGKTARITCGGNNIGSKSVHWYQQRPGQAPVLVIYYDSDRPSGIPERFSGSNSGNTATLTISRVEAGDEADFYCQVWDRSTNHLVVFGGGTQLTVL next?
**Result** 3.77

**Query** Can you check C938 (antibody, V domains shown) VH: QVQLVESGGGVVQPGRSLRLSCAASGFTFRSHAMHWVRQAPGKGLEWVAIISSDGFNKYYADSVKGRFTISRDNSKNTLYVHMNSLRVEDTAIYYCASGLLWFETREISGAPDYGMAVWGQGATVTVSS VL: DIQMTQSPSSLSASVGDRVTITCRASQNISNFLNWYQQKPGKAPKLLIYAASSLQSGVPSRYSGSGSGTDFTLTISSLQAEDFATYYCQQSYSTPLTFGGGTKVEIK next?
**Result** 2.63
